Attribution: ChEMBL document CHEMBL1629485

tested on: MCF7; test: Cytotoxicity against human MCF7 cells expressing estrogen receptor assessed as LDH release at 10 uM; type: functional
We label by threshold. Values of Activity strictly beneath 3% are Satisfied. Values of 3% and up are Not satisfied.

Solved cases below.
>>> labelclass("COc1cc(N2C(=O)CC2c2ccc(F)cc2)cc(OC)c1OC (configuration not stated)")
"Satisfied"
>>> labelclass("COc1cc(N2C(=O)CC2c2ccc(OC)c(OC)c2OC)cc(OC)c1OC (configuration not stated)")
"Not satisfied"
>>> labelclass("COc1cc(OC)c(C2CC(=O)N2c2cc(OC)c(OC)c(OC)c2)cc1OC (configuration not stated)")
"Satisfied"
>>> labelclass("COc1ccc(C2CC(=O)N2c2cc(OC)c(OC)c(OC)c2)cc1OC (configuration not stated)")
"Not satisfied"
>>> labelclass("COc1ccc(C2CC(=O)N2c2cc(OC)c(OC)c(OC)c2)cc1O (configuration not stated)")
"Not satisfied"

Q: # strict comparison: is reported Activity < 3%? input = COc1ccc(C2C(C)C(=S)N2c2cc(OC)c(OC)c(OC)c2)cc1 (configuration not stated)
Ans: Not satisfied
